conditions: in water, 308.15 K
value kind: solubility (mole fraction)
Answer with a bare number; do not write a unit.

Reported solubility (mole fraction) for CC(=O)[C@@]1(O)CC[C@H]2[C@@H]3CCC4=CC(=O)CC[C@]4(C)[C@H]3C(O)C[C@@]21C (stereo in doubt) : what is it?
3.64e-05

====

conditions: in water, 313.15 K
value kind: solubility (mole fraction)
Answer with a bare number; do not write a unit.

Reported solubility (mole fraction) for CC(=O)[C@@]1(O)CC[C@H]2[C@@H]3CCC4=CC(=O)CC[C@]4(C)[C@H]3C(O)C[C@@]21C (stereo in doubt) : what is it?
3.98e-05

====

settings: in n-propanol, 283.15 K
value kind: solubility (mole fraction)
Answer with a bare number; do not write a unit.

Reported solubility (mole fraction) for CC(=O)[C@@]1(O)CC[C@H]2[C@@H]3CCC4=CC(=O)CC[C@]4(C)[C@H]3C(O)C[C@@]21C (stereo in doubt) : what is it?
0.00978

====

details: in DMF, 278.15 K
value kind: solubility (mole fraction)
Answer with a bare number; do not write a unit.

Reported solubility (mole fraction) for CC(=O)[C@@]1(O)CC[C@H]2[C@@H]3CCC4=CC(=O)CC[C@]4(C)[C@H]3C(O)C[C@@]21C (stereo in doubt) : what is it?
0.0659

====

conditions: in DMF, 293.15 K
value kind: solubility (mole fraction)
Answer with a bare number; do not write a unit.

Reported solubility (mole fraction) for CC(=O)[C@@]1(O)CC[C@H]2[C@@H]3CCC4=CC(=O)CC[C@]4(C)[C@H]3C(O)C[C@@]21C (stereo in doubt) : what is it?
0.0825

====

settings: in methanol, 283.15 K
value kind: solubility (mole fraction)
Answer with a bare number; do not write a unit.

Reported solubility (mole fraction) for CC(=O)[C@@]1(O)CC[C@H]2[C@@H]3CCC4=CC(=O)CC[C@]4(C)[C@H]3C(O)C[C@@]21C (stereo in doubt) : what is it?
0.0147

====

conditions: in acetone, 278.15 K
value kind: solubility (mole fraction)
Answer with a bare number; do not write a unit.

Reported solubility (mole fraction) for CC(=O)[C@@]1(O)CC[C@H]2[C@@H]3CCC4=CC(=O)CC[C@]4(C)[C@H]3C(O)C[C@@]21C (stereo in doubt) : what is it?
0.00679

====

conditions: in DMF, 298.15 K
value kind: solubility (mole fraction)
Answer with a bare number; do not write a unit.

Reported solubility (mole fraction) for CC(=O)[C@@]1(O)CC[C@H]2[C@@H]3CCC4=CC(=O)CC[C@]4(C)[C@H]3C(O)C[C@@]21C (stereo in doubt) : what is it?
0.0943

====

conditions: in acetone, 288.15 K
value kind: solubility (mole fraction)

Reported solubility (mole fraction) for CC(=O)[C@@]1(O)CC[C@H]2[C@@H]3CCC4=CC(=O)CC[C@]4(C)[C@H]3C(O)C[C@@]21C (stereo in doubt) : what is it?
0.00804

====

conditions: in water, 278.15 K
value kind: solubility (mole fraction)
Answer with a bare number; do not write a unit.

Reported solubility (mole fraction) for CC(=O)[C@@]1(O)CC[C@H]2[C@@H]3CCC4=CC(=O)CC[C@]4(C)[C@H]3C(O)C[C@@]21C (stereo in doubt) : what is it?
1.39e-05

====

settings: in chloroform, 298.15 K
value kind: solubility (mole fraction)
Answer with a bare number; do not write a unit.

Reported solubility (mole fraction) for CC(=O)[C@@]1(O)CC[C@H]2[C@@H]3CCC4=CC(=O)CC[C@]4(C)[C@H]3C(O)C[C@@]21C (stereo in doubt) : what is it?
0.0157

====

settings: in DMF, 313.15 K
value kind: solubility (mole fraction)
Answer with a bare number; do not write a unit.

Reported solubility (mole fraction) for CC(=O)[C@@]1(O)CC[C@H]2[C@@H]3CCC4=CC(=O)CC[C@]4(C)[C@H]3C(O)C[C@@]21C (stereo in doubt) : what is it?
0.119

====

conditions: in water, 293.15 K
value kind: solubility (mole fraction)
Answer with a bare number; do not write a unit.

Reported solubility (mole fraction) for CC(=O)[C@@]1(O)CC[C@H]2[C@@H]3CCC4=CC(=O)CC[C@]4(C)[C@H]3C(O)C[C@@]21C (stereo in doubt) : what is it?
2.43e-05

====

conditions: in chloroform, 303.15 K
value kind: solubility (mole fraction)
Answer with a bare number; do not write a unit.

Reported solubility (mole fraction) for CC(=O)[C@@]1(O)CC[C@H]2[C@@H]3CCC4=CC(=O)CC[C@]4(C)[C@H]3C(O)C[C@@]21C (stereo in doubt) : what is it?
0.016

====

conditions: in acetone, 308.15 K
value kind: solubility (mole fraction)
Answer with a bare number; do not write a unit.

Reported solubility (mole fraction) for CC(=O)[C@@]1(O)CC[C@H]2[C@@H]3CCC4=CC(=O)CC[C@]4(C)[C@H]3C(O)C[C@@]21C (stereo in doubt) : what is it?
0.0115

====

conditions: in methanol, 303.15 K
value kind: solubility (mole fraction)
Answer with a bare number; do not write a unit.

Reported solubility (mole fraction) for CC(=O)[C@@]1(O)CC[C@H]2[C@@H]3CCC4=CC(=O)CC[C@]4(C)[C@H]3C(O)C[C@@]21C (stereo in doubt) : what is it?
0.0206

====

details: in DMF, 283.15 K
value kind: solubility (mole fraction)
Answer with a bare number; do not write a unit.

Reported solubility (mole fraction) for CC(=O)[C@@]1(O)CC[C@H]2[C@@H]3CCC4=CC(=O)CC[C@]4(C)[C@H]3C(O)C[C@@]21C (stereo in doubt) : what is it?
0.0722

====

conditions: in DMF, 308.15 K
value kind: solubility (mole fraction)
Answer with a bare number; do not write a unit.

Reported solubility (mole fraction) for CC(=O)[C@@]1(O)CC[C@H]2[C@@H]3CCC4=CC(=O)CC[C@]4(C)[C@H]3C(O)C[C@@]21C (stereo in doubt) : what is it?
0.11

====

conditions: in acetone, 298.15 K
value kind: solubility (mole fraction)

Reported solubility (mole fraction) for CC(=O)[C@@]1(O)CC[C@H]2[C@@H]3CCC4=CC(=O)CC[C@]4(C)[C@H]3C(O)C[C@@]21C (stereo in doubt) : what is it?
0.0095

====

settings: in chloroform, 293.15 K
value kind: solubility (mole fraction)
Answer with a bare number; do not write a unit.

Reported solubility (mole fraction) for CC(=O)[C@@]1(O)CC[C@H]2[C@@H]3CCC4=CC(=O)CC[C@]4(C)[C@H]3C(O)C[C@@]21C (stereo in doubt) : what is it?
0.0146

meta.source: BigSolDB 2.1
